Assay: Mouse pharmacokinetic (PK) studies, plasma concentrations
Assay type: in vivo, mice
Conditions: mouse, plasma, oral; male ICR mice, single dose 10 mg/kg orally or 1 mg/kg intravenously (FIG. 23A)
quantity: bioavailability

O=C1CCC(N2C(=O)c3ccc(N4CC(CN5CCN(c6ccc(C(=O)Nc7n[nH]c8ccc(Cc9cc(F)cc(F)c9)cc78)c(NC7CCOCC7)c6)CC5)C4)cc3C2=O)C(=O)N1 (centres unmarked) [TR-231]    ~48%

Specify measured bioavailability for O=C1CCC(N2C(=O)c3ccc(N4CC(N5CCN(c6ccc(C(=O)Nc7n[nH]c8ccc(Cc9cc(F)cc(F)c9)cc78)c(NC7CCOCC7)c6)CC5)C4)cc3C2=O)C(=O)N1 (centres unmarked) [TR-275] .
~27%

* * *

Target: TPM3-TRKA fusion protein (Homo sapiens, UniProt P04629)
Construct: The resulted chimeric proteins always retain the kinase domain of TRK proteins; TPM3 (fusion partner, N-terminal part of tropomyosin alpha-3, P06753); endogenous in cells; host or cells: KM12 colon cancer cells; the other entry of the earlier key: TPM3 (P06753, Tropomyosin alpha-3 chain)
Sequence (P04629 with tags, fused parts or gaps): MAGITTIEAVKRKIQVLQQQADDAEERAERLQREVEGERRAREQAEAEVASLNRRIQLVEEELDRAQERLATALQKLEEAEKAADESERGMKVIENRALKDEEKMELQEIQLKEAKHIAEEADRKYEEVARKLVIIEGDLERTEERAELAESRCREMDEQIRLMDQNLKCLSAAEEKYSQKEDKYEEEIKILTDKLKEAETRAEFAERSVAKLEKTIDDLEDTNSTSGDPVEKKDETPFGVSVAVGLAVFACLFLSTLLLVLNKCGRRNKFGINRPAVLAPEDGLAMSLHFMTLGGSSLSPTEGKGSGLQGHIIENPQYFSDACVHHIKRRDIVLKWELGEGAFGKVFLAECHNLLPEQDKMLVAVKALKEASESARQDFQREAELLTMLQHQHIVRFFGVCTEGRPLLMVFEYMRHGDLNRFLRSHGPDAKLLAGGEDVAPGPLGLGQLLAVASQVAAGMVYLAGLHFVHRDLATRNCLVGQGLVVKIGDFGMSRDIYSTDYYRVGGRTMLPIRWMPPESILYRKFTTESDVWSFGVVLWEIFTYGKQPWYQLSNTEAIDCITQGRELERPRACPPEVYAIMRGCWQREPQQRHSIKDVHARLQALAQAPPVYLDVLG
Experiment: TPM3-TRKA fusion protein levels in KM12 cells (Western blot)
Format: cell-based
Settings: 16 h; TPM3-TRKA degradation in KM12 cells at 10 nM compound, category of percentage degradation; read-out: Degradation (at 10 nM)
The reader will find reported percent degradation of TPM3-TRKA protein at 0.01 µM values listed item by item below.

Recorded results for 9 compounds are shown here.
Cn1c(=O)n(C2CCC(=O)NC2=O)c2ccc(NCCCN3CCN(c4cccc(-c5cnc6ccc(N7CCC[C@@H]7c7cccc(F)c7)nn56)n4)CC3)cc21 (stereo partly shown)    > 80%
O=C1CCC(N2C(=O)c3cccc(NCCCCCCC(=O)N4CCN(c5cccc(-c6cnc7ccc(N8CCC[C@@H]8c8cccc(F)c8)nn67)n5)CC4)c3C2=O)C(=O)N1 (stereo partly shown)    50 to 80%
O=C1CCC(N2C(=O)c3ccc(NCC(=O)N4CCN(c5ccc(C(=O)Nc6n[nH]c7ccc(Cc8cc(F)cc(F)c8)cc67)c(NCCF)c5)CC4)cc3C2=O)C(=O)N1 (stereo not shown)    > 80%
O=C1CC[C@@H](N2C(=O)c3ccc(N4CC(CN5CCN(c6ccc(C(=O)Nc7n[nH]c8ccc(Cc9cc(F)cc(F)c9)cc78)c(NC7CCOCC7)c6)CC5)C4)cc3C2=O)C(=O)N1    > 80%
O=C1CCC(N2C[C@H](c3ccc(CN4CCN(c5cccc(-c6cnc7ccc(N8CCC[C@@H]8c8cccc(F)c8)nn67)n5)CC4)cc3)OC2=O)C(=O)N1 (stereo partly shown)    50 to 80%
O=C1CCC(N2C(=O)c3ccc(N4CCC(CN5CCN(c6cccc(-c7cnc8ccc(N9CCC[C@@H]9c9cccc(F)c9)nn78)n6)CC5)CC4)cc3C2=O)C(=O)N1 (stereo partly shown)    > 80%
Cc1ncsc1-c1ccc(CNC(=O)[C@@H]2C[C@@H](O)CN2C(=O)[C@@H](NC(=O)CCCCCCCNC(=O)CN2CCN(c3ccc(C(=O)Nc4n[nH]c5ccc(Cc6cc(F)cc(F)c6)cc45)c(NC4CCOCC4)c3)CC2)C(C)(C)C)cc1    < 50%
Cc1ncsc1-c1ccc(CNC(=O)[C@@H]2C[C@@H](O)CN2C(=O)[C@@H](NC(=O)CCCCCCCCCC(=O)N2CCN(c3ccc(C(=O)Nc4n[nH]c5ccc(Cc6cc(F)cc(F)c6)cc45)c(NC4CCOCC4)c3)CC2)C(C)(C)C)cc1    < 50%
O=C(CN1CCN(c2ccc(C(=O)Nc3n[nH]c4ccc(Cc5cc(F)cc(F)c5)cc34)c(NC3CCOCC3)c2)CC1)NCCOCCOCCNc1ccc2c(c1)C(=O)N(C1CCC(=O)NC1=O)C2=O (stereo not shown)    > 80%

Let's switch to this compound now.
Specify measured percent degradation of TPM3-TRKA protein at 0.01 µM for CC(C1CN(c2ccc3c(c2)C(=O)N(C2CCC(=O)NC2=O)C3=O)C1)N1CCN(c2ccc(C(=O)Nc3n[nH]c4ccc(Cc5cc(F)cc(F)c5)cc34)c(NC3CCOCC3)c2)CC1 (stereo not shown) .
> 80%

* * *

The reader will find reported percent degradation of TPM3-TRKA protein at 0.01 µM values listed item by item below.
Biological target: TPM3-TRKA fusion protein (Homo sapiens, UniProt P04629)
Construct: The resulted chimeric proteins always retain the kinase domain of TRK proteins; TPM3 (fusion partner, N-terminal part of tropomyosin alpha-3, P06753); endogenous in cells; host or cells: KM12 colon cancer cells; the other entry of the earlier key: TPM3 (P06753, Tropomyosin alpha-3 chain)
Assay: TPM3-TRKA fusion protein levels in KM12 cells (Western blot)
Format: cell-based
Conditions: 16 h; TPM3-TRKA degradation in KM12 cells at 10 nM compound, category of percentage degradation; read-out: Degradation (at 10 nM)

Recorded results for 5 compounds are shown here.
O=C1CCC(N2C(=O)c3cccc(NCCC(=O)N4CCN(c5cccc(-c6cnc7ccc(N8CCC[C@@H]8c8cccc(F)c8)nn67)n5)CC4)c3C2=O)C(=O)N1 (stereo partly drawn)    50 to 80%
O=C1CCC(N2Cc3ccc(C#CCN4CCN(c5ccc(C(=O)Nc6n[nH]c7ccc(Cc8cc(F)cc(F)c8)cc67)c(NC6CCOCC6)c5)CC4)cc3C2=O)C(=O)N1 (stereo not drawn)    > 80%
O=C1CCC(N2C(=O)c3cccc(NCC(=O)N4CCN(c5cccc(-c6cnc7ccc(N8CCC[C@@H]8c8cccc(F)c8)nn67)n5)CC4)c3C2=O)C(=O)N1 (stereo partly drawn)    > 80%
O=C1CCC(N2Cc3cc(N4CC(N5CCN(c6ccc(C(=O)Nc7n[nH]c8ccc(Cc9cc(F)cc(F)c9)cc78)c(NC7CCOCC7)c6)CC5)C4)ccc3C2=O)C(=O)N1 (stereo not drawn)    > 80%
O=C1CCC(N2C(=O)c3ccc(C4CN(CC5CCN(c6cccc(-c7cnc8ccc(N9CCC[C@@H]9c9cccc(F)c9)nn78)n6)CC5)C4)cc3C2=O)C(=O)N1 (stereo partly drawn)    > 80%

Let's switch to this compound now.
Specify measured percent degradation of TPM3-TRKA protein at 0.01 µM for O=C1CCC(N2Cc3cc(C#CC4CCN(c5cccc(-c6cnc7ccc(N8CCC[C@@H]8c8cccc(F)c8)nn67)n5)CC4)ccc3C2=O)C(=O)N1 (stereo partly drawn) .
50 to 80%

* * *

Target: TPM3-TRKA fusion protein (Homo sapiens)
Construct: The resulted chimeric proteins always retain the kinase domain of TRK proteins; TPM3 (fusion partner, N-terminal part of tropomyosin alpha-3, P06753); endogenous in cells; host or cells: KM12 colon cancer cells; the other entry of the earlier key: TPM3 (P06753, Tropomyosin alpha-3 chain)
Experiment: TPM3-TRKA fusion protein levels in KM12 cells (Western blot)
Assay type: cell-based
Settings: 16 h; TPM3-TRKA degradation in KM12 cells at 10 nM compound, category of percentage degradation; read-out: Degradation (at 10 nM)
quantity: percent degradation of TPM3-TRKA protein at 0.01 µM

O=C1CCC(n2nnc3cccc(N4CC(CCN5CCN(c6cccc(-c7cnc8ccc(N9CCC[C@@H]9c9cccc(F)c9)nn78)n6)CC5)C4)c3c2=O)C(=O)N1 (some centres unmarked)    50 to 80%

Specify measured percent degradation of TPM3-TRKA protein at 0.01 µM for O=C1CCC(N2C(=O)c3ccc(NCCN4CCN(c5cccc(-c6cnc7ccc(N8CCC[C@@H]8c8cccc(F)c8)nn67)n5)CC4)cc3C2=O)C(=O)N1 (some centres unmarked) .
> 80%

Specify measured percent degradation of TPM3-TRKA protein at 0.01 µM for O=C(CN1CCN(c2cccc(-c3cnc4ccc(N5CCC[C@@H]5c5cccc(F)c5)nn34)n2)CC1)NCCOCCOCCOCCOCCOCCNc1ccc2c(c1)C(=O)N(C1CCC(=O)NC1=O)C2=O (some centres unmarked) .
> 80%

Specify measured percent degradation of TPM3-TRKA protein at 0.01 µM for O=C(CN1CCN(c2ccc(C(=O)Nc3n[nH]c4ccc(Cc5cc(F)cc(F)c5)cc34)c(NC3CCOCC3)c2)CC1)NCCCCCNc1ccc2c(c1)C(=O)N(C1CCC(=O)NC1=O)C2=O (centres unmarked) .
> 80%

Specify measured percent degradation of TPM3-TRKA protein at 0.01 µM for O=C(CN1CCN(c2ccc(C(=O)Nc3n[nH]c4ccc(Cc5cc(F)cc(F)c5)cc34)c(NC3CCOCC3)c2)CC1)NCCCCCCCNc1ccc2c(c1)C(=O)N(C1CCC(=O)NC1=O)C2=O (centres unmarked) .
> 80%

Specify measured percent degradation of TPM3-TRKA protein at 0.01 µM for O=C(CN1CCN(c2ccc(C(=O)Nc3n[nH]c4ccc(Cc5cc(F)cc(F)c5)cc34)c(NC3CCOCC3)c2)CC1)NCCNc1cccc2c1C(=O)N(C1CCC(=O)NC1=O)C2=O (centres unmarked) .
> 80%

Specify measured percent degradation of TPM3-TRKA protein at 0.01 µM for O=C(CN1CCN(c2ccc(C(=O)Nc3n[nH]c4ccc(Cc5cc(F)cc(F)c5)cc34)c(NC3CCOCC3)c2)CC1)NCCCCCNc1cccc2c1C(=O)N(C1CCC(=O)NC1=O)C2=O (centres unmarked) .
> 80%

Specify measured percent degradation of TPM3-TRKA protein at 0.01 µM for Cn1c(=O)n(C2CCC(=O)NC2=O)c2ccc(CCCCN3CCN(c4cccc(-c5cnc6ccc(N7CCC[C@@H]7c7cccc(F)c7)nn56)n4)CC3)cc21 (some centres unmarked) .
> 80%

Specify measured percent degradation of TPM3-TRKA protein at 0.01 µM for O=C1CCC(n2nnc3cccc(N4CC(CN5CCN(c6cccc(-c7cnc8ccc(N9CCC[C@@H]9c9cccc(F)c9)nn78)n6)CC5)C4)c3c2=O)C(=O)N1 (some centres unmarked) .
50 to 80%

Specify measured percent degradation of TPM3-TRKA protein at 0.01 µM for O=C1CCC(N2C(=O)c3ccc(NCCCCC(=O)N4CCN(c5cccc(-c6cnc7ccc(N8CCC[C@@H]8c8cccc(F)c8)nn67)n5)CC4)cc3C2=O)C(=O)N1 (some centres unmarked) .
> 80%

Specify measured percent degradation of TPM3-TRKA protein at 0.01 µM for O=C1CCC(N2C(=O)c3ccc(C4CN(C5CCN(c6ccc(C(=O)Nc7n[nH]c8ccc(Cc9cc(F)cc(F)c9)cc78)c(NC7CCOCC7)c6)CC5)C4)cc3C2=O)C(=O)N1 (centres unmarked) .
> 80%
